Consider the following molecules; for each one, report its Mean relative activity.
System: K562 CRISPRi cells
Test: Constant region variant library pooled growth screen, K562
Format: cell-based, human
Settings: sgRNA constant region variants; activity relative to the original, un-modified constant region cr995
// no unit string in output, number only

Q. Recorded Mean relative activity for cr212 (nucleic acid, listed as DNA, chemistry not fully specified) guide: GTTTAAGAGCTAAGCTGGAAACAGCATAGCAAATTTAAATAAGGCTAGTCCGTTATCAACTTGAAGAAGTGGCACCGAGTCGGTGCT , please?
A. 0.6035

Q. Recorded Mean relative activity for cr056 (nucleic acid, listed as DNA, chemistry not fully specified) guide: GTGTCAGAGCTAAGCTGGAAACAGCATAGCAAGTTTAAATAAGGCTAGTCCGTTATCAACTTGAAAAAGTGGCACCGAGTCGGTGCT , please?
A. −0.009512

Q. Recorded Mean relative activity for cr048 (nucleic acid, listed as DNA, chemistry not fully specified) guide: TTTCAAGAGCTAAGCTGGAAACAGCATAGCAAGTTTAAATAAGGCTAGTCCGTTATCAACTTGAAAAAGTGGCACCGAGTCGGTGCT , please?
A. 0.02761

Q. Recorded Mean relative activity for cr467 (nucleic acid, listed as DNA, chemistry not fully specified) guide: GTTTAAGAGCTAAGCTGGAAACAGCATAGCAAGCTTAAATAAGGCTAGTCCGTTATCAATTTGAAAAAATGGCACCGAGTCGGTGCT , please?
A. 0.06565

Q. Recorded Mean relative activity for cr602 (nucleic acid, listed as DNA, chemistry not fully specified) guide: GTTTAAGAGCTAAGCTGGAAACAGCATAGCAAGTTTAAATAAGGCTAGTCCGTTATCAACTTGAAAAAGTGGCGCCGAGTCGGCGCT , please?
A. 1.049

Q. Recorded Mean relative activity for cr894 (nucleic acid, listed as DNA, chemistry not fully specified) guide: GTTTAAGAGCTAAGCTGGAAACAGCATAGCAACTTTAAATAAGGCTAGTCCGTTATCAATTTGAAAAAATGGCACCGAGTCGGTGCT , please?
A. −0.003408

Q. Recorded Mean relative activity for cr488 (nucleic acid, listed as DNA, chemistry not fully specified) guide: GTTTAAGAGCTAAGCTGGAAACAGCATAGCAAGTTTAAATAAGGCTAGTCCGTTATCAACTTGAAAAAGTGGGACCGAGTCGGTCCT , please?
A. 1.06

Q. Recorded Mean relative activity for cr087 (nucleic acid, listed as DNA, chemistry not fully specified) guide: CTTTGAGAGCTAAGCTGGAAACAGCATAGCAAGTTTAAATAAGGCTAGTCCGTTATCAACTTGAAAAAGTGGCACCGAGTCGGTGCT , please?
A. 0.1041

Q. Recorded Mean relative activity for cr184 (nucleic acid, listed as DNA, chemistry not fully specified) guide: GTTTAAGAGCTAAGCTGGAAACAGCATAGCAAGTTTAAATAAGGCTAGTCCGGTATCAACTTGGAAAAGTGGCACCGAGTCGGTGCT , please?
A. 0.8653

Q. Recorded Mean relative activity for cr538 (nucleic acid, listed as DNA, chemistry not fully specified) guide: GTTTAAGAGCTAAGCTGGAAACAGCATAGCAAGCTTAAATAAGACTAGTTCGTTATCAACTTGAAAAAGTGGCACCGAGTCGGTGCT , please?
A. 0.1104

Q. Recorded Mean relative activity for cr673 (nucleic acid, listed as DNA, chemistry not fully specified) guide: GTTTAAGAGCTAAGCTGGAAACAGCATAGCAACTTTAAATAAGGCTAGTCCGTTATCAACTTGAAAAAGTGGCACCGTGTCGGTGCT , please?
A. −0.005072

Q. Recorded Mean relative activity for cr066 (nucleic acid, listed as DNA, chemistry not fully specified) guide: ATTCAAGAGCTAAGCTGGAAACAGCATAGCAAGTTTAAATAAGGCTAGTCCGTTATCAACTTGAAAAAGTGGCACCGAGTCGGTGCT , please?
A. 0.09115

Q. Recorded Mean relative activity for cr976 (nucleic acid, listed as DNA, chemistry not fully specified) guide: GTTTAAGAGCTAAGCTGGAAACAGCATAGCAAGTTTAAATAAGGGTACTCCGTTATCAACTTGAGAAAGTGGCACCGAGTCGGTGCT , please?
A. 0.5594

Q. Recorded Mean relative activity for cr571 (nucleic acid, listed as DNA, chemistry not fully specified) guide: GTTTAAGAGCTAAGCTGGAAACAGCATAGCAAGGTTAAATAAGGCTAGTCCGTTATCAACTCGAAAGAGTGGCACCGAGTCGGTGCT , please?
A. 0.03194

Origin of values: patent US20220259593A1
